Record form. Attribute: cytotoxicity at 10 µM. Fill in for each entry.
Assay: Toxicity liver stage against HepG2, at 10uM
Format: cell-based
Design: test concentration 10 uM, cell line HepG2-A16-CD81EGFP
Details: human, HepG2-A16-CD81EGFP cells; read-out: INHIBITION

INSERT INTO measurements (molecule, value_reported) VALUES
  ('CNC(=O)CC1CCN(Cc2nc(-c3cccc(Cl)c3)oc2C)CC1', '-9.75%'),
  ('Cc1cc(N2CCc3c(ncn3C3CC3)C2)nc(N)n1', '-5.44%'),
  ('O=C(c1cc(Cl)cc(Cl)c1)N1CCN(c2nccs2)CC1', '-5.69%'),
  ('CCOCCCNc1nc2c(s1)c(C)nn2C', '1.54%'),
  ('CC(Cn1cccn1)NCc1csc(-c2ccccc2F)n1 (stereo not drawn)', '-7.71%');

For every item in the list below, what is its measured cytotoxicity at 10 µM?
1. CC(=O)N1CC[C@H]2OCC[C@@H](C(=O)N3CCCCO3)[C@@H]2C1
2. CCN(CC)c1ccc(NS(=O)(=O)c2cnn(C(C)C)c2)cn1
3. Clc1ccc(-n2nnnc2C2(NCc3ccco3)CCCCC2)cc1

1: -5.1%; 2: 5.02%; 3: 15.7%

----------
Test: Toxicity liver stage against HepG2, at 10uM
Assay type: cell-based
Set-up: test concentration 10 uM, cell line HepG2-A16-CD81EGFP
Settings: human, HepG2-A16-CD81EGFP cells; read-out: INHIBITION
Record form. Attribute: cytotoxicity at 10 µM. Fill in for each entry.
One number for each entry, in %.

Field: example entries. Status: answers known.
INSERT INTO results (molecule, value_reported) VALUES
  ('CN(C1CCN(c2ccccn2)CC1)S(=O)(=O)c1cccc(F)c1', 10.8),
  ('COCCOc1ccc(CNc2cnc3ccccc3n2)cn1', 8.15),
  ('O=C(c1ccsc1)N1CCC(Nc2cccnn2)CC1', -7.58),
  ('Cc1ccccc1CNCc1cc(Cl)ccc1O', -5.9),
  ('CN1CCC(C)(CN(C)Cc2ccc(CCC(C)(C)O)cc2)C1 (stereo unspecified)', -6.44),
  ('COc1cccc2c1CCN(C(=O)NCCc1nccn1C)C2', 2.38),
  ('CN(C)C(=O)Cn1c2c(ccc1=O)CC(NCc1cccnc1)CC2 (stereo unspecified)', 18),
  ('CCC(C)n1c(SCC(=O)N2CCOCC2)nc2cc(C)[nH]c2c1=O (stereo unspecified)', 7.94),
  ('CCc1nc(C)cc(N2CCCC(C(=O)c3ccc(OC)cc3C)C2)n1 (stereo unspecified)', 9.99),
  ('COc1ccccc1OCc1cc(C(=O)N2CCS(=O)(=O)CC2)n[nH]1', -2.93);

For every item in the list below, what is its measured cytotoxicity at 10 µM?
1. O=c1cc(CN2CCCC2)nc2n1CCCN(S(=O)(=O)C1CC1)C2
2. CN(C)CCN1CCC2(CCN(C(=O)c3ccncc3)CC2)C1=O
3. CC(C)Oc1cccc(CN(C)C(=O)Cc2ccon2)c1
4. CC(C)(C)CC(=O)N1[C@@H](c2ccco2)[C@@H](CO)C[C@]12CCCCNC2=O

-3.56
0.0515
-2.09
0.122

For every item in the list below, what is its measured cytotoxicity at 10 µM?
1. Cc1ccc(O)c(CN(CCCn2ccnc2)Cc2ccc(C)s2)c1
2. CCN(C)CC1CCN(C(=O)Nc2ccc(-c3cc[nH]n3)cc2)C1 (stereo unspecified)
3. O=C(c1cscn1)N1CCC2(CC1)CCN(S(=O)(=O)c1ccccc1)C2
4. COc1cccc(CN2CC(O)CN(S(C)(=O)=O)CC2=O)c1OC (stereo unspecified)

1. -25.8
2. -6.25
3. 10.5
4. -0.686

For every item in the list below, what is its measured cytotoxicity at 10 µM?
1. CC(C)CC(=O)N1CCN(c2cc(N(C)C)cnn2)CC1
2. CCN1CCN(c2ccc(C(=O)NC(C)CCOC)cc2)CC1 (stereo unspecified)
3. CCC(CC)c1cc(CNC(=O)N2CCN(CC)CC2)on1

1. 4.17
2. 8.7
3. -3.26

----------
Assay: Toxicity liver stage against HepG2, at 10uM
Type: cell-based
Parameters: test concentration 10 uM, cell line HepG2-A16-CD81EGFP
Details: human, HepG2-A16-CD81EGFP cells; read-out: INHIBITION
Record form. Attribute: cytotoxicity at 10 µM. Fill in for each entry.
Give bare numbers, in %.

For every item in the list below, what is its measured cytotoxicity at 10 µM?
1. Cn1nc(-c2cccc(Cl)c2)c(Br)c1C(=O)O
2. COc1cccc(C(=O)N2CCN(C(=O)CCn3ccnc3)CC2)c1
3. Cc1ccc(N2CCN(C(=O)COc3ncccn3)CC2)nn1
4. O=C(NCCOc1ccc(Cl)cn1)Nc1cccnc1
5. O=C(Nc1cccnc1)C1CN(C(=O)c2ccc3c(c2)OCO3)C1
6. CC(C)(C)c1oc(C(N)=O)cc1CN1CCCCC(N)C1 (stereo not drawn)
7. CN(CC1COc2ccccc2O1)C(=O)c1ccc(-c2cn[nH]c2)nc1 (stereo not drawn)
8. CCn1ccnc1S(=O)(=O)Cc1ccc(C(N)=O)cc1

1. -56.5
2. 10.3
3. -0.233
4. -2.3
5. -11.7
6. 5.94
7. 5.37
8. -3.8
